The values you see were collected from ChEMBL document CHEMBL1806424.

System: THP-1
Assay: Antiinflammatory activity in human THP1 cells assessed as inhibition of LPS-induced IL6 production at 10 uM treated 30 mins before LPS challenge measured after 24 hrs by ELISA
Format: functional
Criterion: inhibition at 10 µM meeting or surpassing 10%. Met: Criterion met. Not met: Criterion not met.

compound	study_target	label
CCOC(=O)C1=C(C)NC(=S)NC1c1ccc(NC(=O)Nc2ccccc2Cl)cc1 (centres undefined)	THP-1	Criterion met
CCOC(=O)C1=C(C)NC(=S)NC1c1ccc(NC(=O)Nc2ccc(OC)cc2)cc1 (centres undefined)	THP-1	Criterion met
CCOC(=O)C1=C(C)NC(=S)NC1c1ccc(NC(=O)Nc2cccc(C(F)(F)F)c2)cc1 (centres undefined)	THP-1	Criterion met
CCOC(=O)C1=C(C)NC(=S)NC1c1ccc(NC(=O)Nc2ccccc2C(F)(F)F)cc1 (centres undefined)	THP-1	Criterion met
CCOC(=O)C1=C(C)NC(=S)NC1c1ccc(N)cc1 (centres undefined)	THP-1	Criterion not met
CCOC(=O)C1=C(C)NC(=S)NC1c1ccc(NC(=O)Nc2ccccc2Oc2ccccc2)cc1 (centres undefined)	THP-1	Criterion met
CCOC(=O)C1=C(C)NC(=S)NC1c1ccc(NC(=O)Nc2ccc(C)c(C)c2)cc1 (centres undefined)	THP-1	Criterion not met
CCOC(=O)C1=C(C)NC(=S)NC1c1ccc(NC(=O)Nc2ccc(C(C)C)cc2)cc1 (centres undefined)	THP-1	Criterion met

----------
Test system: THP-1
Assay: Antiinflammatory activity in human THP1 cells assessed as inhibition of LPS-induced TNFalpha production at 10 uM treated 30 mins before LPS challenge measured after 24 hrs by ELISA
Type: functional
Here the recorded inhibition at 10 µM is given for each entry.

compound	readout_units	inhibition at 10 µM
CCOC(=O)C1=C(C)NC(=S)NC1c1ccc(NC(=O)Nc2ccc(F)c(Cl)c2)cc1 (stereo not given)	%	3
CCOC(=O)C1=C(C)NC(=S)NC1c1ccc(NC(=O)Nc2c(F)cccc2Cl)cc1 (stereo not given)	%	0
CCOC(=O)C1=C(C)NC(=S)NC1c1ccc(NC(=O)Nc2c(C)cccc2Cl)cc1 (stereo not given)	%	2
CCOC(=O)C1=C(C)NC(=S)NC1c1ccc(NC(=O)Nc2cc(C(F)(F)F)ccc2Cl)cc1 (stereo not given)	%	68
CCOC(=O)C1=C(C)NC(=S)NC1c1ccc(NC(=O)Nc2cccc(C(F)(F)F)c2)cc1 (stereo not given)	%	0

----------
Test system: Aspergillus flavus
Assay: Antifungal activity against Aspergillus flavus
Assay type: functional
// classify: if (MIC < 30 µg/mL) TRUE else FALSE

molecule	study_target	label
Clc1ccc(COC(Cn2ccnc2)c2ccc(Cl)cc2Cl)c(Cl)c1 (stereo unspecified)	Aspergillus flavus	TRUE
CCOC(=O)C1=C(C)NC(=S)NC1c1ccc(NC(=O)Nc2ccccc2OC(F)(F)F)cc1 (stereo unspecified)	Aspergillus flavus	TRUE
CCOC(=O)C1=C(C)NC(=S)NC1c1ccc(NC(=O)Nc2c(C)cccc2F)cc1 (stereo unspecified)	Aspergillus flavus	FALSE
CCOC(=O)C1=C(C)NC(=S)NC1c1ccc(NC(=O)Nc2c(Cl)cccc2C(F)(F)F)cc1 (stereo unspecified)	Aspergillus flavus	FALSE

----------
Here the recorded MIC is given for each entry.
Tested on: Candida albicans
Assay: Antifungal activity against Candida albicans
Type: functional

compound	MIC / µg/mL
CCOC(=O)C1=C(C)NC(=S)NC1c1ccc(NC(=O)Nc2ccccc2C(F)(F)F)cc1 (stereo not drawn)	25
CCOC(=O)C1=C(C)NC(=S)NC1c1ccc(NC(=O)Nc2ccc(OC)cc2)cc1 (stereo not drawn)	10
CCOC(=O)C1=C(C)NC(=S)NC1c1ccc(NC(=O)Nc2cc(F)cc(F)c2)cc1 (stereo not drawn)	95
CCOC(=O)C1=C(C)NC(=S)NC1c1ccc(NC(=O)Nc2c(C)cccc2Cl)cc1 (stereo not drawn)	40
CCOC(=O)C1=C(C)NC(=S)NC1c1ccc(NC(=O)Nc2ccccc2OC(F)(F)F)cc1 (stereo not drawn)	15
CCOC(=O)C1=C(C)NC(=S)NC1c1ccc(NC(=O)Nc2cc(C(F)(F)F)ccc2Cl)cc1 (stereo not drawn)	60
CCOC(=O)C1=C(C)NC(=S)NC1c1ccc(NC(=O)Nc2ccc(F)c(C)c2)cc1 (stereo not drawn)	80
CCOC(=O)C1=C(C)NC(=S)NC1c1ccc(NC(=O)Nc2ccc(C(F)(F)F)cc2)cc1 (stereo not drawn)	15
CCOC(=O)C1=C(C)NC(=S)NC1c1ccc([N+](=O)[O-])cc1 (stereo not drawn)	30
CCOC(=O)C1=C(C)NC(=S)NC1c1ccc(NC(=O)Nc2ccc(C)c(C)c2)cc1 (stereo not drawn)	95
CCOC(=O)C1=C(C)NC(=S)NC1c1ccc(N)cc1 (stereo not drawn)	55
Clc1ccc(COC(Cn2ccnc2)c2ccc(Cl)cc2Cl)c(Cl)c1 (stereo not drawn)	25
CCOC(=O)C1=C(C)NC(=S)NC1c1ccc(NC(=O)Nc2c(F)cccc2Cl)cc1 (stereo not drawn)	40
CCOC(=O)C1=C(C)NC(=S)NC1c1ccc(NC(=O)Nc2ccccc2Oc2ccccc2)cc1 (stereo not drawn)	40
CCOC(=O)C1=C(C)NC(=S)NC1c1ccc(NC(=O)Nc2ccc(C(C)C)cc2)cc1 (stereo not drawn)	90
CCOC(=O)C1=C(C)NC(=S)NC1c1ccc(NC(=O)Nc2c(Cl)cccc2C(F)(F)F)cc1 (stereo not drawn)	60
CCOC(=O)C1=C(C)NC(=S)NC1c1ccc(NC(=O)Nc2ccccc2F)cc1 (stereo not drawn)	10
CCOC(=O)C1=C(C)NC(=S)NC1c1ccc(NC(=O)Nc2c(F)cccc2C(F)(F)F)cc1 (stereo not drawn)	55

----------
Test system: THP-1
Experiment: Antiinflammatory activity in human THP1 cells assessed as inhibition of LPS-induced IL6 production at 10 uM treated 30 mins before LPS challenge measured after 24 hrs by ELISA
Format: functional

compound	inhibition at 10 µM [%]
CCOC(=O)C1=C(C)NC(=S)NC1c1ccc(NC(=O)Nc2c(F)cccc2Cl)cc1 (centres undefined)	36
CCOC(=O)C1=C(C)NC(=S)NC1c1ccc(NC(=O)Nc2ccc(C(F)(F)F)cc2)cc1 (centres undefined)	55
CCOC(=O)C1=C(C)NC(=S)NC1c1ccc(NC(=O)Nc2ccc(F)c(Cl)c2)cc1 (centres undefined)	40
CCOC(=O)C1=C(C)NC(=S)NC1c1ccc(NC(=O)Nc2c(C)cccc2Cl)cc1 (centres undefined)	11
CCOC(=O)C1=C(C)NC(=S)NC1c1ccc(NC(=O)Nc2cc(F)cc(F)c2)cc1 (centres undefined)	86
CCOC(=O)C1=C(C)NC(=S)NC1c1ccc(NC(=O)Nc2cc(C(F)(F)F)ccc2Cl)cc1 (centres undefined)	92
CCOC(=O)C1=C(C)NC(=S)NC1c1ccc(NC(=O)Nc2c(C)cccc2F)cc1 (centres undefined)	6
CCOC(=O)C1=C(C)NC(=S)NC1c1ccc(NC(=O)Nc2ccc(F)c(C)c2)cc1 (centres undefined)	16
CCOC(=O)C1=C(C)NC(=S)NC1c1ccc(NC(=O)Nc2c(F)cccc2C(F)(F)F)cc1 (centres undefined)	27

----------
Here the recorded inhibition at 10 µM is given for each entry.
System: THP-1
Experiment: Antiinflammatory activity in human THP1 cells assessed as inhibition of LPS-induced TNFalpha production at 10 uM treated 30 mins before LPS challenge measured after 24 hrs by ELISA
Format: functional

molecule	study_target	readout_units	inhibition at 10 µM
CCOC(=O)C1=C(C)NC(=S)NC1c1ccc(NC(=O)Nc2cc(F)cc(F)c2)cc1 (centres undefined)	THP-1	%	62
CCOC(=O)C1=C(C)NC(=S)NC1c1ccc(NC(=O)Nc2ccccc2C(F)(F)F)cc1 (centres undefined)	THP-1	%	10
CCOC(=O)C1=C(C)NC(=S)NC1c1ccc(NC(=O)Nc2ccc(C(F)(F)F)cc2)cc1 (centres undefined)	THP-1	%	3
CCOC(=O)C1=C(C)NC(=S)NC1c1ccc(NC(=O)Nc2ccccc2OC(F)(F)F)cc1 (centres undefined)	THP-1	%	20
CCOC(=O)C1=C(C)NC(=S)NC1c1ccc([N+](=O)[O-])cc1 (centres undefined)	THP-1	%	0
CCOC(=O)C1=C(C)NC(=S)NC1c1ccc(NC(=O)Nc2ccccc2Oc2ccccc2)cc1 (centres undefined)	THP-1	%	0
CCOC(=O)C1=C(C)NC(=S)NC1c1ccc(NC(=O)Nc2ccc(C(C)C)cc2)cc1 (centres undefined)	THP-1	%	30
CCOC(=O)C1=C(C)NC(=S)NC1c1ccc(NC(=O)Nc2ccc(F)c(C)c2)cc1 (centres undefined)	THP-1	%	0
CCOC(=O)C1=C(C)NC(=S)NC1c1ccc(NC(=O)Nc2ccc(C)c(C)c2)cc1 (centres undefined)	THP-1	%	0

----------
Here the recorded inhibition at 10 µM is given for each entry.
System: THP-1
Test: Antiinflammatory activity in human THP1 cells assessed as inhibition of LPS-induced IL6 production at 10 uM treated 30 mins before LPS challenge measured after 24 hrs by ELISA
Type: functional

molecule	inhibition at 10 µM, %
CCOC(=O)C1=C(C)NC(=S)NC1c1ccc([N+](=O)[O-])cc1 (stereo not given)	8
CCOC(=O)C1=C(C)NC(=S)NC1c1ccc(NC(=O)Nc2ccccc2OC(F)(F)F)cc1 (stereo not given)	60
CCOC(=O)C1=C(C)NC(=S)NC1c1ccc(NC(=O)Nc2ccc(C(F)(F)F)cc2Cl)cc1 (stereo not given)	73
CCOC(=O)C1=C(C)NC(=S)NC1c1ccc(NC(=O)Nc2ccccc2F)cc1 (stereo not given)	40
CCOC(=O)C1=C(C)NC(=S)NC1c1ccc(NC(=O)Nc2c(Cl)cccc2C(F)(F)F)cc1 (stereo not given)	39
